- TARGET_OR_SYSTEM: 5-HT6R (Homo sapiens)
- Sequence (P50406 whole entry): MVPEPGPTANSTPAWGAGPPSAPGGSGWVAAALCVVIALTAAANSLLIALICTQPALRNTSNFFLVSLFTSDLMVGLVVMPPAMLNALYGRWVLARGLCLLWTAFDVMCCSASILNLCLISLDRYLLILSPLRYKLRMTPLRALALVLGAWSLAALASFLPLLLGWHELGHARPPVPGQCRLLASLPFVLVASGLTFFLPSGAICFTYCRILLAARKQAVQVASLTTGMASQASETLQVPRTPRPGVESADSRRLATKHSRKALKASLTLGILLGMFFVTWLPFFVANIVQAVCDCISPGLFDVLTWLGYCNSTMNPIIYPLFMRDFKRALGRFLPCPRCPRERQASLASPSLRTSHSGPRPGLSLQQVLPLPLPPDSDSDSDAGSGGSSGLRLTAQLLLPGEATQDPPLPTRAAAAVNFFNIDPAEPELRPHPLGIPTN
- TEST_PROTOCOL: Radioligand binding assay, [3H]-LSD displacement
- RUN_PARAMETERS: Ki 5-HT6, Figure 8
Here the recorded Ki is given for each entry.

- STRUCTURE_AS_SMILES: "Brc1cccc2c(CNCCc3c[nH]c4ccccc34)c[nH]c12"
  TARGET_OR_SYSTEM: "5-HT6R (Homo sapiens)"
  Ki, nM: 449
- STRUCTURE_AS_SMILES: "c1ccc2c(CCNCc3c[nH]c4ccccc34)c[nH]c2c1"
  TARGET_OR_SYSTEM: "5-HT6R (Homo sapiens)"
  Ki, nM: 172
- STRUCTURE_AS_SMILES: "Brc1cccc2c(CCNCc3c[nH]c4ccccc34)c[nH]c12"
  TARGET_OR_SYSTEM: "5-HT6R (Homo sapiens)"
  Ki, nM: 161
- STRUCTURE_AS_SMILES: "Brc1ccc2c(CNCCc3c[nH]c4ccccc34)c[nH]c2c1"
  TARGET_OR_SYSTEM: "5-HT6R (Homo sapiens)"
  Ki, nM: 102

---

- TARGET_OR_SYSTEM: D2R (Homo sapiens)
- Sequence (P14416 whole entry): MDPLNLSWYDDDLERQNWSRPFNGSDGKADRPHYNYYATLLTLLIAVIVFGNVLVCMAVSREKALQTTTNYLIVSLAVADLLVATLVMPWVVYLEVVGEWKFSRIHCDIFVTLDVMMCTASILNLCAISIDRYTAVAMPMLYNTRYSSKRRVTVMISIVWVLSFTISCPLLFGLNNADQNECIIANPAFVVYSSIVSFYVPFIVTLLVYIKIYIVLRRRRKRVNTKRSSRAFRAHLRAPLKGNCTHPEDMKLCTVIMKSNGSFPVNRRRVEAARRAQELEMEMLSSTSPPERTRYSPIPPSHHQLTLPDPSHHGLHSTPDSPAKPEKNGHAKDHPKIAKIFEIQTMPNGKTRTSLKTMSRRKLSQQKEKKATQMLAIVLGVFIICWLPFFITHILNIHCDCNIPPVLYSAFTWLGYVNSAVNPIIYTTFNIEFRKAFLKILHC
- TEST_PROTOCOL: Radioligand binding assay, [3H]-raclopride displacement
- RUN_PARAMETERS: Ki D2, Figure 8
pKi: −log10 of the molar value.
REPORTED_METRIC: pKi

- STRUCTURE_AS_SMILES: "Clc1cccc2c(CNCCc3c[nH]c4ccccc34)c[nH]c12"
  REPORTED: 7.29
- STRUCTURE_AS_SMILES: "Brc1ccc2c(CNCCc3c[nH]c4ccccc34)c[nH]c2c1"
  REPORTED: 6.54
- STRUCTURE_AS_SMILES: "Clc1ccc2c(CNCCc3c[nH]c4ccccc34)c[nH]c2c1"
  REPORTED: 6.91
- STRUCTURE_AS_SMILES: "Brc1cccc2c(CNCCc3c[nH]c4ccccc34)c[nH]c12"
  REPORTED: 7.26
- STRUCTURE_AS_SMILES: "Fc1ccc2c(CNCCc3c[nH]c4ccccc34)c[nH]c2c1"
  REPORTED: 6.52
- STRUCTURE_AS_SMILES: "Clc1ccc2c(CCNCc3c[nH]c4ccccc34)c[nH]c2c1"
  REPORTED: 6.81

---

- TARGET_OR_SYSTEM: UniProt:P14416
- TEST_PROTOCOL: Radioligand binding assay, [3H]-raclopride displacement
- RUN_PARAMETERS: pKi D2, Table 1
pKi: −log10 of the molar value.
Label scheme for pKi: lower than 6 is N, 6 and above is Y.

- MOLECULE: "Clc1cccc2c(CNCCc3c[nH]c4ccccc34)c[nH]c12 [Compound 17]"
  TARGET_OR_SYSTEM: "UniProt:P14416"
  ASSIGNED_LABEL: "Y"
- MOLECULE: "Clc1ccc2c(CNCCc3c[nH]c4ccccc34)c[nH]c2c1 [Compound 14]"
  TARGET_OR_SYSTEM: "UniProt:P14416"
  ASSIGNED_LABEL: "Y"
- MOLECULE: "Fc1ccc2[nH]cc(CNCCc3c[nH]c4ccccc34)c2c1 [Compound 10]"
  TARGET_OR_SYSTEM: "UniProt:P14416"
  ASSIGNED_LABEL: "N"
- MOLECULE: "Fc1cccc2c(CCNCc3c[nH]c4ccccc34)c[nH]c12 [Compound 6]"
  TARGET_OR_SYSTEM: "UniProt:P14416"
  ASSIGNED_LABEL: "N"
- MOLECULE: "COc1ccc2[nH]cc(CCNCc3c[nH]c4cc(Cl)ccc34)c2c1 [Compound 21]"
  TARGET_OR_SYSTEM: "UniProt:P14416"
  ASSIGNED_LABEL: "N"

---

- TARGET_OR_SYSTEM: D2R (Homo sapiens)
- TEST_PROTOCOL: Radioligand binding assay, [3H]-raclopride displacement
- RUN_PARAMETERS: pKi D2, Table 1
pKi: −log10 of the molar value.
REPORTED_METRIC: pKi

- COMPOUND: "c1ccc(COc2cccc3c(CNCCc4c[nH]c5ccccc45)c[nH]c23)cc1 [Compound 19]"
  REPORTED_METRIC: "pKi"
  REPORTED: 5.39
- COMPOUND: "Clc1cccc2c(CCNCc3c[nH]c4ccccc34)c[nH]c12 [Compound 7]"
  REPORTED_METRIC: "pKi"
  REPORTED: 4.93
- COMPOUND: "Brc1cccc2c(CCNCc3c[nH]c4ccccc34)c[nH]c12 [Compound 8]"
  REPORTED_METRIC: "pKi"
  REPORTED: 5.52
- COMPOUND: "Oc1ccc2[nH]cc(CNCCc3c[nH]c4ccccc34)c2c1 [Compound 9]"
  REPORTED_METRIC: "pKi"
  REPORTED: 5.12
- COMPOUND: "Brc1ccc2c(CNCCc3c[nH]c4ccccc34)c[nH]c2c1 [Compound 15]"
  REPORTED_METRIC: "pKi"
  REPORTED: 6.54
